Biological target: T1, human BCMA (B-cell maturation antigen, CD269) expressed on cells (human, UniProt Q02223 1-184)
T1 construct: Endogenous on myeloma lines (NCI-H929, U266, JJN3) or a full-length clone transfected into HEK 293 cells; also called hBCMA; BCMA expressed on NCI-H929 cells
T1 sequence: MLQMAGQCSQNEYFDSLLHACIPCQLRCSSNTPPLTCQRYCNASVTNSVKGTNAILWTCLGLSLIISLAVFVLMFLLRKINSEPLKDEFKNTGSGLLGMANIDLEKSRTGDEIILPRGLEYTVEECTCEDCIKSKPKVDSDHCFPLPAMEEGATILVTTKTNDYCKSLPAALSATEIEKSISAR
Test: cell binding, U266 cells, full range of concentration points
observation.type: binding result

binder="hSG16.17 vH2 vK3 (antibody, V domains shown, also called hSG16.17 6) VH: QVQLVQSGAEVKKPGASVKLSCKASGYTFTDYYMHWVRQAPGQGLEWIGRINPNSGYTNYAQKFQGRVTMTADKSINTAYVELSRLRSDDTAVYFCTRYMWERVTGFFDFWGQGTMVTVSS VL: DIQMTQSPSSVSASVGDRVTITCRASEDISDDLAWYQQKPGKAPKVLVYTTSSLQSGVPSRFSGSGSGTDFTLTISSLQPEDFATYFCQQTYKFPPTFGGGTKVEIKR" value_observed=binds
binder="hSG16.17 vH2 vK5 (antibody, V domains shown, also called hSG16.17 8) VH: QVQLVQSGAEVKKPGASVKLSCKASGYTFTDYYMHWVRQAPGQGLEWIGRINPNSGYTNYAQKFQGRVTMTADKSINTAYVELSRLRSDDTAVYFCTRYMWERVTGFFDFWGQGTMVTVSS VL: DIQMTQSPSSVSASVGDRVTITCRASEDISDDLAWYQQKSGKAPKVLVYTTSSLQSGVPSRFSGSGSGTDFTLTISSLQPEDFATYFCQQTYKFPPTFGGGTKVEIKR" value_observed=binds
binder="hSG16.17 vH2 vK2 (antibody, V domains shown, also called hSG16.17 5) VH: QVQLVQSGAEVKKPGASVKLSCKASGYTFTDYYMHWVRQAPGQGLEWIGRINPNSGYTNYAQKFQGRVTMTADKSINTAYVELSRLRSDDTAVYFCTRYMWERVTGFFDFWGQGTMVTVSS VL: DIQMTQSPSSVSASVGDRVTITCLASEDISDDLAWYQQKPGKAPKVLVYTTSSLQSGVPSRFSGSGSGTDFTLTISSLQPEDFATYFCQQTYKFPPTFGGGTKVEIKR" value_observed=binds
binder="hSG16.17 vH2 vK4 (antibody, V domains shown, also called hSG16.17 7) VH: QVQLVQSGAEVKKPGASVKLSCKASGYTFTDYYMHWVRQAPGQGLEWIGRINPNSGYTNYAQKFQGRVTMTADKSINTAYVELSRLRSDDTAVYFCTRYMWERVTGFFDFWGQGTMVTVSS VL: DIQMTQSPSSVSASVGDRVTITCLASEDISDDLAWYQQKPGKAPKVLVYTTSRLQSGVPSRFSGSGSGTDFTLTISSMQPEDFADYFCQQTYKFPPTFGGGTKVEIKR" value_observed=binds
